SYSTEM UNDER TEST: PI3Kγ (p110γ) Recombinant Human Protein (Homo sapiens (Human), UniProt P48736)
Sequence (P48736 whole entry): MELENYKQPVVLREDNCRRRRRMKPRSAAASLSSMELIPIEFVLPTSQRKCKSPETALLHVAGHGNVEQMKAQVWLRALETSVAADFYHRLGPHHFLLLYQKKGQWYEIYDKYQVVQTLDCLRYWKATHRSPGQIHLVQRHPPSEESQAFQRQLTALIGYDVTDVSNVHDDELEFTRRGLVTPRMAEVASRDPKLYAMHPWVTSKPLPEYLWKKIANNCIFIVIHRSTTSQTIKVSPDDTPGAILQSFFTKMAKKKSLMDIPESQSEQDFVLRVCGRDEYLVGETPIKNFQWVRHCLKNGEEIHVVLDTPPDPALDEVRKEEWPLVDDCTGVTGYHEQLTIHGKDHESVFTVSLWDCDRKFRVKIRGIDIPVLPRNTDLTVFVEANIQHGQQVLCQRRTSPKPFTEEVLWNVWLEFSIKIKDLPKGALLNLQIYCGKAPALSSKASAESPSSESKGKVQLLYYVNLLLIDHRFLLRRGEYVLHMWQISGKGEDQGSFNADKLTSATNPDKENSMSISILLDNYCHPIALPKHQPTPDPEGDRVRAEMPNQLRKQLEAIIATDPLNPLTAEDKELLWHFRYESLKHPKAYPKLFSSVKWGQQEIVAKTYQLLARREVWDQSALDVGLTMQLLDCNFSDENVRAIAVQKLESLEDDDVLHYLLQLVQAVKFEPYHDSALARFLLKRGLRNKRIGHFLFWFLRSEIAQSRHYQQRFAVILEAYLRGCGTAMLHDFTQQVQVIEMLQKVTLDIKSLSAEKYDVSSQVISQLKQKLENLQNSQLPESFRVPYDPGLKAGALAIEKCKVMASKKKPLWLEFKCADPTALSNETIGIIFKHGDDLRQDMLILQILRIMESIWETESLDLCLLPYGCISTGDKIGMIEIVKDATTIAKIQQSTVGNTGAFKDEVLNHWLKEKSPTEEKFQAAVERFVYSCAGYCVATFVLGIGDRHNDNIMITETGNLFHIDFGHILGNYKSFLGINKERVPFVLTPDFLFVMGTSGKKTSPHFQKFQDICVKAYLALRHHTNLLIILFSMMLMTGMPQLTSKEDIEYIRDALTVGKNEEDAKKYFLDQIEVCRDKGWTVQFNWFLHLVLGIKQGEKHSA
TEST NAME: PI3K-γ Scintillation Proximity Assay
CONDITION CONTEXT: 20 μM PIP2, 2 μM ATP, 13 nM PI3Kγ, 120 min; read-out: PI3K-gamma SPA IC50
pIC50: −log10 of the molar value. Counter-ions that a name gives are not always drawn.
MEASURED PARAMETER: pIC50

COMPOUND	pIC50
COc1cncc(-c2ccc3nc(-c4cnc[nH]4)oc3c2)c1 [Example 2, trifluoroacetate]	> 5.30

Prompt line: Would you kindly share the measured pIC50 for COc1cncc(-c2ccc3nc(-c4ccc[nH]4)oc3c2)c1 [Example 3, trifluoroacetate] ?
Response line: > 5.30

Prompt line: Would you kindly share the measured pIC50 for Cc1nc(-c2nc3ccc(-c4cncc(C(O)C(F)(F)F)c4)cc3o2)[nH]c1C (stereo not shown) [Example 67, bis(trifluoroacetate)] ?
Response line: > 6.60

Prompt line: Would you kindly share the measured pIC50 for CC(C)S(=O)(=O)Nc1cncc(-c2ccc3nc(-c4nc5ccccc5[nH]4)oc3c2)c1 [Example 24] ?
Response line: > 6.60

====

SYSTEM UNDER TEST: PI3Kγ (p110γ) Recombinant Human Protein (Homo sapiens (Human), UniProt P48736)
TEST NAME: PI3K-γ Scintillation Proximity Assay
CONDITION CONTEXT: 20 μM PIP2, 2 μM ATP, 13 nM PI3Kγ, 120 min; read-out: PI3K-gamma SPA IC50
pIC50: −log10 of the molar value. Where a name gives a salt, the structure may show the parent alone.
MEASURED PARAMETER: pIC50

Sample answers from the record:
COMPOUND	MEASUREMENT
O=S(=O)(CC(F)(F)F)Nc1cncc(-c2ccc3nc(-c4nc5ccccc5[nH]4)oc3c2)c1 [Example 77, bis(trifluoroacetate)]	> 6.60
COc1cncc(-c2ccc3nc(-c4cnc(C5CCOC5)[nH]4)oc3c2)c1 (stereo not shown) [Example 43]	> 5.30
CN(C)S(=O)(=O)Nc1cncc(-c2ccc3nc(-c4ncc[nH]4)oc3c2)c1 [Example 41]	> 6.60
O=C(O)Cc1cncc(-c2ccc3nc(-c4nc5ccccc5[nH]4)oc3c2)c1 [Example 71]	> 6.00
CCc1ncc(-c2nc3ccc(-c4cncc(OC)c4)cc3o2)[nH]1 [Example 45]	< 5.30
Fc1ccc(-c2ccc3nc(-c4nc5ccccc5[nH]4)oc3c2)cc1F [Example 51, trifluoroacetate]	> 6.60

Here's the next entry for you.
Prompt line: Would you kindly share the measured pIC50 for CCS(=O)(=O)Nc1cc(-c2ccc3nc(-c4nc5ccccc5[nH]4)oc3c2)cc(F)c1OC [Example 80, bis(trifluoroacetate)] ?
Response line: > 6.60

====

SYSTEM UNDER TEST: PI3Kδ (p110δ/p85α) Recombinant Human Protein (Homo sapiens (Human), UniProt O00329)
Sequence (O00329 whole entry): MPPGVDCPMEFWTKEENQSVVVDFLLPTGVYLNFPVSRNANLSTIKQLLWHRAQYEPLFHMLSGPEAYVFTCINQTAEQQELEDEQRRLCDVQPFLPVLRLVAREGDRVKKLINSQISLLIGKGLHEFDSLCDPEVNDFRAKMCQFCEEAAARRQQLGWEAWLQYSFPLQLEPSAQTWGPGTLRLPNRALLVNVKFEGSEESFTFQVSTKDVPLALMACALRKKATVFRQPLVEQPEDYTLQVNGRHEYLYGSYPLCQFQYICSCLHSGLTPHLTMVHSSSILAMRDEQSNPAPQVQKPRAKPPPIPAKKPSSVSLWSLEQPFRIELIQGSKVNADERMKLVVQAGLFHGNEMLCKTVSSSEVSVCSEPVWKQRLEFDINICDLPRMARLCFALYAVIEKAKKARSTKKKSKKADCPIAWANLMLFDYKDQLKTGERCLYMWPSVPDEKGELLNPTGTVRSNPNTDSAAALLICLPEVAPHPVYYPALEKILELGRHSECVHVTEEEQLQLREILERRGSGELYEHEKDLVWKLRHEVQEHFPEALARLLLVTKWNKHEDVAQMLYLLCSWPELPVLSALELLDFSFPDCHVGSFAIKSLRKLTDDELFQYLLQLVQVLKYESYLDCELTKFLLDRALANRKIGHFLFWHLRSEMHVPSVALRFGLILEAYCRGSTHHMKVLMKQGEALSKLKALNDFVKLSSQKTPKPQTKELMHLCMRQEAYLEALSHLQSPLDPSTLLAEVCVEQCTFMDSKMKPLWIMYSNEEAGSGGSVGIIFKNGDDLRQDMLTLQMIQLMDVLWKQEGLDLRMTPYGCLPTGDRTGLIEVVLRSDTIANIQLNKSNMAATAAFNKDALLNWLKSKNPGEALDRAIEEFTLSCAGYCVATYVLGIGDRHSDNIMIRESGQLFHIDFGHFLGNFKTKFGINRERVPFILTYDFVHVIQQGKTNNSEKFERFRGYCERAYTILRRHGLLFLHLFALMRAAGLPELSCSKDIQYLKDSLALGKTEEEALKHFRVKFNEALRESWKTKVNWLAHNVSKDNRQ
Sequence (P27986 whole entry partner): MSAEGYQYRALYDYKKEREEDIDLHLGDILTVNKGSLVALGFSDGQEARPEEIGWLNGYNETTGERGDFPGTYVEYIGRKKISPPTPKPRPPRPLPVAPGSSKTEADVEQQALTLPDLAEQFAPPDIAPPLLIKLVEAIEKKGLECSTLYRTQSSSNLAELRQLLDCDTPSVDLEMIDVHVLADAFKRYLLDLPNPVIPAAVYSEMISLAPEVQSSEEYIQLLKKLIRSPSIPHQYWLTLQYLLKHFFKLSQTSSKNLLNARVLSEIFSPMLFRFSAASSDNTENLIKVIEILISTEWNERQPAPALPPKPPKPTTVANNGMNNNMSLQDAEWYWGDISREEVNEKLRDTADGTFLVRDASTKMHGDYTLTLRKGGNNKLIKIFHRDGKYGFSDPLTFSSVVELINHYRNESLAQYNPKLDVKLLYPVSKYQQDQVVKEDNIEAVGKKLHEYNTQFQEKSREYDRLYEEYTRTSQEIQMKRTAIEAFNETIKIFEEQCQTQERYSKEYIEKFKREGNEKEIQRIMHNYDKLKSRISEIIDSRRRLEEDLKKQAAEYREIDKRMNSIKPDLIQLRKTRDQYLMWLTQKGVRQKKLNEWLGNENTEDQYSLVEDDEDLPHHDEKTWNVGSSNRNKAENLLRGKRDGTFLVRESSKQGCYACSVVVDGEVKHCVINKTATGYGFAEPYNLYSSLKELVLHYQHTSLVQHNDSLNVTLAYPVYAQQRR
TEST NAME: PI3Kδ Scintillation Proximity Assay
CONDITION CONTEXT: 20 μM PIP2, 2 μM ATP, 3.4 nM PI3Kδ, 120 min; read-out: PI3K-delta SPA IC50
Where a name gives a salt, the structure may show the parent alone.
Catalogue of compounds with associated IC50

COMPOUND	SYSTEM UNDER TEST	MEASURED PARAMETER	MEASUREMENT
COc1cncc(-c2ccc3nc(-c4cnc[nH]4)oc3c2)c1 [Example 2, trifluoroacetate]	PI3Kδ (p110δ/p85α) Recombinant Human Protein (Homo sapiens (Human), UniProt O00329)	IC50	< 5 µM
COc1cncc(-c2ccc3nc(-c4nc5c(C)cccc5[nH]4)oc3c2)c1 [Example 12]	PI3Kδ (p110δ/p85α) Recombinant Human Protein (Homo sapiens (Human), UniProt O00329)	IC50	≥ 5 µM
CCS(=O)(=O)Nc1cc(-c2ccc3nc(-c4nc5ccccc5[nH]4)oc3c2)cnc1Cl [Example 26]	PI3Kδ (p110δ/p85α) Recombinant Human Protein (Homo sapiens (Human), UniProt O00329)	IC50	≥ 5 µM
CC(=O)Nc1cncc(-c2ccc3nc(-c4nc5ccccc5[nH]4)oc3c2)c1 [Example 33]	PI3Kδ (p110δ/p85α) Recombinant Human Protein (Homo sapiens (Human), UniProt O00329)	IC50	≥ 5 µM
O=S(=O)(c1cncc(-c2ccc3nc(-c4nc5ccccc5[nH]4)oc3c2)c1)N1CCC(O)C1 (centres unmarked) [Example 58, bis(trifluoroacetate)]	PI3Kδ (p110δ/p85α) Recombinant Human Protein (Homo sapiens (Human), UniProt O00329)	IC50	< 1 µM

Prompt line: Would you kindly share the measured IC50 for c1ccc(CN2CCN(c3ccc4nc(-c5nc6ccccc6[nH]5)oc4c3)CC2)cc1 [Example 55, tris(trifluoroacetate)] ?
Response line: ≥ 5 µM

Prompt line: Would you kindly share the measured IC50 for CCS(=O)(=O)N(C)c1cncc(-c2ccc3nc(-c4nc5ccccc5[nH]4)oc3c2)c1 [Example 73, bis(trifluoroacetate)] ?
Response line: < 5 µM

Prompt line: Would you kindly share the measured IC50 for OC(c1cncc(-c2ccc3nc(-c4nc5ccccc5[nH]4)oc3c2)c1)C(F)(F)F (centres unmarked) [Example 74, bis(trifluoroacetate)] ?
Response line: < 0.25 µM
